tested on: A375 cells; assay: A-to-I PepTile screen: fitness effect upon IFNα (PepTile abundance untreated vs treated); format: cell-based, human; conditions: IFNα 6000 U/ml for 48 hours vs untreated
MEASUREMENT TYPE: Fitness Score IFNα

# SEQUENCE CHAIN, MEASUREMENT TYPE, REPORTED VALUE
measured = [
    ("MSLLTGLSDSQVRAFRHTSTLAAMKLMTALVNVALNLSIHQ [STAG1_52]", "Fitness Score IFNα", -0.26),
    ("MAVEITGAGPGASSVCNSAPGSGPSSPNSSHSTIAENGFTG [HDAC5_75]", "Fitness Score IFNα", 0.76),
    ("MDTLDPELFVECTECGRKMHQICVLHHEIIWPAGFVCDGCL [EP300_310]", "Fitness Score IFNα", -1.83),
    ("MLRYFDEKELELMLCGMQEIDMSDWQKSTIYRHYTKNSKQI [WWP2_185]", "Fitness Score IFNα", -0.08),
    ("MPLRGWPLELLCEKSIGTANRPMGAGEALRRVLECLASGIV [ILF3_62]", "Fitness Score IFNα", -0.73),
    ("MQAHLAMGGGPGPGTDFTSDQADFPDTLFQEFEPPAPRPGL [ADARB2_50]", "Fitness Score IFNα", 0.65),
    ("MWDSIIQQATKNVDILKDPETVKQLGSILKTNVRACKAVGH [XPO1_167]", "Fitness Score IFNα", 1.42),
    ("MRNAEFLTCNIPTSNASNNMVTTEKVENGQEPVIKLENRQE [ADAR_97]", "Fitness Score IFNα", -1.27),
    ("MNMMLFEVVKMGKSAMQSVVDDWIESYKHDRDIALLDLINF [STAG2_21]", "Fitness Score IFNα", 0.65),
    ("MKTPIQVLHEYGMKTKNIPVYECERSDVQIHVPTFTFRVTV [PRKRA_9]", "Fitness Score IFNα", -0.21),
    ("MCYYVFGDLSGGCESYLVNLSLNDNDGSSGASDQDTLAPLP [DVL2_126]", "Fitness Score IFNα", 0.54),
    ("MGLSPSIDTLDHIRALDRLQEVPHEGPMCDLLWSDPDDRGG [PPP2CB_43]", "Fitness Score IFNα", -0.38),
    ("MGPGDAVRRVLECVATGTLLTDGPGLQDPCERDQTDALEPM [ZFR2_208]", "Fitness Score IFNα", 0.67),
    ("MLEQCNTELKKYSHVNKKALDQFVNFSEQKEKLIKRQEELD [SMC3_243]", "Fitness Score IFNα", -0.61),
    ("MPVSALHQFAQMQRVQLDLKETVTTGNVMGPYFAFCAVVDG [ADAD1_25]", "Fitness Score IFNα", 0.99),
    ("MAPVAAHTVTAAYAPAAATVAVARPAPVAVAAAATAAAYGG [ZFR_18]", "Fitness Score IFNα", 1.04),
    ("MDTVISLLTGLSDSQVRAFRHTSTLAAMKLMTALVNVALNL [STAG1_51]", "Fitness Score IFNα", -0.15),
    ("MSKVTRAQIEDTLRRDHQLREAPDTAEKAKSHLEVPLEENV [CCDC124_24]", "Fitness Score IFNα", -1.31),
    ("MRFLYSELMKYNSQTAKDSIFEPAKGGEKLQIKKTVSFHLY [ADAR_231]", "Fitness Score IFNα", 0.14),
    ("MNKSEISLVFEIALKRNMPVSFEVIKESGPPHMKSFVTRVS [STAU2_44]", "Fitness Score IFNα", 0.07),
    ("MQQGTPGMALGSMGSVVKSEASSSPPVVTSSSHSRAPCQAG [SOX2_58]", "Fitness Score IFNα", -0.36),
    ("MEPAKGGEKLQIKKTVSFHLYISTAPCGDGALFDKSCSDRA [ADAR_236]", "Fitness Score IFNα", -1.07),
    ("MPYERQQFESVEWYNNRNQDNYVSWSDSEDDDEDEEIEEKE [DICER1_98]", "Fitness Score IFNα", -1.79),
    ("MECMHKLGNSCEFRLLSKEGPAHEPKFQYCVAVGAQTFPSV [ADAR_156]", "Fitness Score IFNα", 0.35),
    ("MAGPLGPGDAVRRVLECVATGTLLTDGPGLQDPCERDQTDA [ZFR2_207]", "Fitness Score IFNα", 1.51),
    ("MYSGYEAAVYSAASSYYQQQQQQQKQAAAAAAAAAATAAWT [ZFR_67]", "Fitness Score IFNα", 2.43),
    ("MGELSSADEKRYRALKRTAERELLMNADVICCTCVGAGDPR [UPF1_147]", "Fitness Score IFNα", -0.63),
    ("MCSFNDPNAKEMHLKGRRHRLQYKKKVNPDLQVEVKPSIRA [ZFR_148]", "Fitness Score IFNα", -1.00),
    ("MRPFQALPREQSPPPPLQTSSGAEVMDVGSGGDGQSELPAE [DGCR8_7]", "Fitness Score IFNα", 0.13),
    ("MAVRRVLECVATGTLLTDGPGLQDPCERDQTDALEPMTLQE [ZFR2_209]", "Fitness Score IFNα", 0.22),
    ("MMGGPLPPHLALKAENNSEVGASGYGVPGPTWDRGANLKDY [DHX9_28]", "Fitness Score IFNα", 1.46),
    ("MASLQISPQPRPWRPLPAQAQSAWGPAPAPATYRAEGGWPQ [ADAD2_6]", "Fitness Score IFNα", 3.12),
    ("MRRDHQLREAPDTAEKAKSHLEVPLEENVNRRVLEEGSVEA [CCDC124_27]", "Fitness Score IFNα", 1.71),
    ("MQVEQMEIPPVELPPEEPPNICQLIPELELLPEKEKEKEKE [RAD21_124]", "Fitness Score IFNα", 1.20),
    ("MSGTSYSGYEAAVYSAASSYYQQQQQQQKQAAAAAAAAAAT [ZFR_66]", "Fitness Score IFNα", 2.04),
    ("MSQHRKKEADSVYGEWVPVEKNGEENKDDDNVFSSNLPSEP [SON_53]", "Fitness Score IFNα", 1.03),
    ("MLANFGPRINDIKRIIQSREREMKDLKEKMNQVEDEVFEEF [SMC1A_186]", "Fitness Score IFNα", 0.69),
    ("MVMNLLESAGFSRSNPYYIVKQGKINQMATAPDSQRLKLLR [SMC3_31]", "Fitness Score IFNα", 1.72),
    ("MGRRSSGGGRYRNRSPSDSDMEDYSPPPSLSEVARKMKKKE [NIPBL_285]", "Fitness Score IFNα", 1.59),
    ("MKECVDHLSRDEDEEKLVASLWGAERCLRVLESVTVHNPEN [WAPAL_208]", "Fitness Score IFNα", 1.55),
]
